Consider the following molecules; for each one, report its inhibition.
Biological target: ATP-binding cassette sub-family B member 6 (Homo sapiens)
Test: blockers of ABCB6-driven porphyrin uptake – K562-ABCB6 cells, flow cytometry, validation set, pilot screen (AID 588550);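 note: 0% = DMSO wells and 100% = benzethonium chloride 70 µM positive control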
Conditions: K562-ABCB6 porphyrin accumulation, 1 h, at 10 µM, hits give high values
Write the answer as a number in %, unit excluded.

Please indicate inhibition recorded for "CC(C)=CCC/C(C)=C/CC/C(C)=N/O"
-63

Specify measured inhibition for "COCc1cc(=O)[nH]c(/N=C(\N)Nc2ccc(Oc3ccccc3)cc2)n1" .
12

Return inhibition for the following molecule: CNCCC(Oc1ccc(C(F)(F)F)cc1)c1ccccc1 (stereo not drawn)
6

Hello, please tell me recorded inhibition for this one: COc1ccc(C2CC(c3c(O)cc(C)oc3=O)=NCCS2)c(OC)c1 (stereo not drawn)
-46

Output inhibition of "O=C1[C@@H]2CSCN2C(=O)CN1Cc1ccc(F)cc1"
6

Identify measured inhibition associated with "CC1(C)[C@@H](O)CC[C@]2(C)[C@H]3C(=O)C=C4[C@@H]5C[C@@](C)(C(=O)O)CC[C@]5(C)CC[C@@]4(C)[C@]3(C)CC[C@@H]12"
15

Please look at this molecule and report its inhibition: CCOc1ccc(C(NC(C)=O)c2ccc(OC)c(OC)c2)cc1 (stereo not drawn)
8

Supply reported inhibition belonging to this molecule: "CC(C)(C)C(=O)NCCCNc1ccc([N+](=O)[O-])cc1"
15

// Input: "Cc1ccc(S(=O)(=O)Oc2ccccc2/C=N/N=C(N)N)cc1" . Output its inhibition only.
7

Specify reported inhibition for the molecule shown: "C=CCNC(=O)c1ccc(-c2cccc([N+](=O)[O-])c2)o1"
4

Look up and report measured inhibition for this entry: COCC1CCCN(Cc2cn[nH]c2-c2cc3ccccc3o2)C1 (stereo not drawn)
7

Quickly give me recorded inhibition for "Cc1ccc(-n2cc(CNCCN3CCOC3=O)c(-c3ccc(F)cc3)n2)cc1"
4

Determine its reported inhibition: CCOc1cc2c(cc1OCC)C(c1ccccc1)N(c1ccc(C(=O)O)cc1)C(=O)C2 (stereo not drawn)
7

Query inhibition for Cc1ccc2c(c1)c(=O)c1c3n2CCN(C(=O)CCl)C3CC1 (stereo not drawn)
1

Give the reported value of inhibition for this record: CCCCCC(O)c1cccc(OCc2ccc3ccccc3n2)c1 (stereo not drawn)
5

Write down inhibition measured for item "c1coc(-c2nnc3n2C2(CCCC2)Cc2ccccc2-3)c1"
14

Give me measured inhibition, please, for this molecule: COC(=O)C1=C(C)N(C)C(=S)NC1c1ccc(Cl)cc1 (stereo not drawn)
7

Report inhibition, nothing else, for this molecule: "COc1ccc(-c2nnc(-c3cc4c(ccc5ccccc54)oc3=O)o2)cc1"
0

Answer with reported inhibition of "Cn1c(Oc2ccc3c(c2)OCO3)nc2c1c(=O)n(Cc1ccccc1)c(=O)n2C"
5

Give reported inhibition value for "CNCCCC1c2ccccc2C=Cc2ccccc21"
9

Quickly give me recorded inhibition for "COc1cc(OC)cc(C(C)=O)c1"
5

Return the recorded inhibition value; entry: "CC(=O)OCC(=O)[C@H]1CC[C@H]2[C@@H]3CCC4=CC(=O)CC[C@]4(C)[C@H]3CC[C@]12C"
8

Give the reported value of inhibition for this record: Cc1nc2ccccc2n1CC(O)Cn1c2ccccc2c2ccccc21 (stereo not drawn)
9

Fill in reported inhibition for this entry: CC(=O)SC1CC2=CC(=O)CCC2(C)C2CCC3(C)C(CCC34CCC(=O)O4)C12 (stereo not drawn)
-3

Supply measured inhibition of "COc1ccc2[nH]c(=O)c3c(c2c1)OC(C)(C)C=C3" in your reply.
6

Name the recorded inhibition of the molecule listed here: COc1ccc2cc(C3(C)NC(=O)NC3=O)ccc2c1 (stereo not drawn)
8

Please give measured inhibition of the following entry: OCCC1CN(Cc2nc(-c3ccccc3)cs2)CCN1Cc1ccc(F)cc1 (stereo not drawn)
9

Look up and report measured inhibition for this entry: COc1ccc(CNCCC(c2ccc(F)cc2)c2ccc(OC(C)C)cc2)cc1OC (stereo not drawn)
-1

Identify measured inhibition corresponding to COc1cc(C2Nc3ccccc3C(=O)N2c2ccccc2)ccc1O (stereo not drawn)
3

Could you please provide reported inhibition for COC(=O)c1ccc(NC(=O)C23CCC(C)(C(=O)O2)C3(C)C)cc1 (stereo not drawn) ? Thanks!
6

Find the measured inhibition of "Cc1ccccc1C(=O)Oc1ccc(Sc2ccc(O)cc2)cc1" and report it.
-7

Respond only with inhibition recorded for "CC(C)c1ccc(NC(=O)CNS(=O)(=O)c2ccc(F)cc2)cc1"
1

Give a short answer stating reported inhibition for "CC1(C)CC(=O)c2c(nc3ccccc3c2N)C1" .
9

----------
Assign response to each entry below.
Test: cytosolic pH regulators acting via V-ATPase – S. cerevisiae, pHLuorin, HTS validation (AID 504600);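 note: plate controls were DMSO for no effect and reference compound for full effect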
Details: V-ATPase proton transport, at 10 µM, hits give high values
Hi! Could you send only the number? It should be in %, unit omitted.

Give response for "CC(=O)OCC#CCSc1nc2ccccc2n1C"
2.63

Give the value of response reported for the following: CC(C)N(Cc1nccn1C)C(=O)CC1C(=O)NCCN1Cc1ccccc1C(F)(F)F (stereo unspecified)
-1.67

Report measured response; entry is CCOc1ccc(CC2CCC(=O)NC2=O)cc1 (stereo unspecified)
-1.14

Look up and state reported response for C/C(=N\NC(=O)C1(C)CC1(Br)Br)c1ccc([N+](=O)[O-])cc1 (stereo unspecified)
26.1

Tell us which response value is on record for "C[C@@H]1C[C@H]2[C@@H]3C[C@H](F)C4=CC(=O)C=C[C@]4(C)[C@@]3(F)[C@@H](O)C[C@]2(C)[C@@]1(O)C(=O)COC(=O)C(C)(C)C"
0.5

Read the entry "C/C(CCc1oc2ccc(Cl)cc2c1-c1ccc(C)o1)=N\O" and write its reported response.
6.85

Determine from records and report response for "CN(C)CCOCCOc1ccc(Cl)cc1Br"
1.08

Give response for the following molecule: "Cc1oncc1C(=O)Nc1ccc(C(F)(F)F)cc1"
6.73

Please list response recorded for the molecule "CCN1/C(=C/C=C/C=C/c2sc3ccccc3[n+]2CC)Sc2ccccc21"
-3.07

Supply recorded response for CC(C)(C)C(=O)Nc1cccc(OC(F)(F)C(F)Cl)c1 (stereo unspecified) here.
18.4

Output response of "COC(=O)c1cc(COc2ccc3ccc(=O)oc3c2)c(C)o1"
-7.29

Tell me response reported for O[C@H]1COC2C1OC[C@@H]2O (stereo partly specified)
1.96

Kindly indicate its recorded response. Item: OC12CCCCC1C(c1ccc3c(c1)OCO3)N(Cc1cccc(F)c1)CC2 (stereo unspecified)
-0.75

For "CC(=O)Oc1ccc2c(=O)c(Oc3ccccc3[N+](=O)[O-])coc2c1" , write its response.
0.8

Indicate the recorded response value for this molecule: "O=C(/C=C/c1ccc2c(c1)OCO2)NCc1ccc(F)cc1"
-3

Give the reported value of response for this record: "C=CCNc1nc2c(c(=O)n(C)c(=O)n2C)n1CC(=C)C"
-4.28

Assign response to the following record: "Cc1ccc(N2C(=O)c3ccccc3C2=O)cc1C"
0.36

For "CCCc1cc(=O)[nH]c(=S)[nH]1" , write its response.
12.1

Provide only the value of recorded response for "Cc1nonc1CN(C)C(=O)c1ccc(OC2CCN(Cc3ccccn3)CC2)cc1"
2.07

Complete the entry with response for "CC[C@H]1CN2CCc3cc(OC)c(OC)cc3[C@@H]2C[C@@H]1C[C@H]1NCCc2cc(OC)c(OC)cc21"
-3.02

Please report response for the following molecule: CC1(C)CC(O)(CNCc2ccc3c(c2)OCO3)CCO1 (stereo unspecified)
-2.49

Assign response to the following record: "Cc1nc(N)nc2c1CCCC2"
-0.37

For the molecule "O=C(CCCn1c(=O)oc2ccccc21)N1CCN(c2ccc(F)cc2)CC1" , give its reported response.
1.31

Give a short answer stating reported response for CC(=O)O[C@H]1C[C@@]2(C)[C@@H](C[C@@H](O)[C@H]3[C@@]4(C)CC[C@@H](O)[C@@H](C)C4CC[C@@]32C)/C1=C(\CCC=C(C)C)C(=O)O (stereo partly specified) .
-3.26

Write down response measured for item "CC(C)(C)c1ccc(/C=C/C(=O)N2CCCCC2)cc1"
-0.06

Specify reported response for the molecule shown: "C[C@@H]1CCC[C@H](C)N1NC(=O)c1ccc(Cl)c(S(N)(=O)=O)c1"
1.78

Note response for the molecule shown: O=C(O)CCCCCN1C(=O)C(=O)/C(=C(/O)c2ccccc2)C1c1ccccc1 (stereo unspecified)
-1.69

Recall and state the measured response for "O=c1[nH]cnc2[nH]ncc12" .
-1.12

Supply response value. Item: C/C=C/c1ccc(OCCCCN2CC(C)CC(C)C2)c(OC)c1 (stereo unspecified)
-3.37

Annotate the molecule CCCNC(C)C(=O)Nc1ccccc1C (stereo unspecified) with its measured response.
4.59

// fetch response given entry "COc1cc(CNCc2ccc(OC)c(OC)c2OC)cc(OC)c1"
22.7
